- MEASUREMENT_PROTOCOL: solvent given as SMILES
- PROTOCOL_CONDITIONS: in CN(C)C=O
Rule for this label: Met means absorption maximum is less than 400 nm; Not met means absorption maximum is at least 400 nm.

Enquiry: Strictly below 400 nm in absorption maximum? c1ccc(-c2nn(-c3ccccc3)c3nc4ccc(N(c5ccccc5)c5ccccc5)cc4cc23)cc1
Return: Not met

Enquiry: Take the compound O=Cc1cc(O)c(C=O)cc1O and say whether its absorption maximum is less than 400 nm.
Return: Not met

Enquiry: Identify whether the compound F[B-]1(F)n2cccc2C(c2ccc(-c3c4ccccc4c(-c4ccccc4)c4ccccc34)cc2)=C2C=CC=[N+]21 records absorption maximum below 400 nm.
Return: Not met

Enquiry: API: query returns whether the compound falls strictly under 400 nm in absorption maximum. Query: CCn1c2ccsc2c2c3nsnc3c3c4sccc4n(CC)c3c21
Return: Not met

Enquiry: Quick check: absorption maximum of COC(=O)C(Cc1ccc2oc(-c3ccc(N(c4ccccc4)c4ccccc4)cc3)nc2c1)NC(=O)OC(C)(C)C (stereo not given) under 400 nm?
Return: Met

---

I'd appreciate it if you could supply absorption maximum values for the items below.
- MEASUREMENT_PROTOCOL: solvent given as SMILES
- PROTOCOL_CONDITIONS: in CO
State the answer as a number, implicitly in nm.

absorption maximum in this record for CN(C)c1ccc(/C=C/C=C2\CCCC2=O)cc1 : 420

The reported absorption maximum of the compound Cc1ccc(C2=C3C=c4c(oc5ccccc45)=[N+]3[B-](F)(F)n3c2cc2c4ccccc4oc23)cc1 was 578

Lab note: Cc1ccc(C2=[N+]3C(=Cc4ccc(C)n4[B-]3(F)F)c3ccccc32)[nH]1 gave absorption maximum of 595

Measured absorption maximum, F[B-]1(F)N2C(=Nc3cccc4cccc2c34)c2cccc[n+]21 : 348

absorption maximum in this record for CCCSc1ccc2n1[B-](F)(F)[N+]1=C(SC#N)C=CC1=C2c1ccccc1 : 544

For reference, reported absorption maximum for COC(=O)C(NC(=O)OC(C)(C)C)c1ccc2oc(-c3ccc(F)cc3)nc2c1 (stereo not given) stands at 302

Looking up COc1ccc2n1[B-](F)(F)[N+]1=CC=CC1=C2c1ccccc1 , I found its absorption maximum recorded as 495

Record O=c1cc(COc2ccc(I)cc2)c2c(ccc3ccccc32)o1 , field absorption maximum: 348

Entry N#Cc1c(-n2nnc3c2CCC2C(CC3)[C@@H]2CO)n([C@H]2C[C@H](O)[C@@H](CO)O2)c2ncnc(N)c12 (stereo not given in full) — recorded absorption maximum = 287

According to the records, this compound CN(C)c1ccc(/C=C2/N=C(c3ccccc3)OC2=O)cc1 displays absorption maximum of 473

---

- MEASUREMENT_PROTOCOL: solvent given as SMILES
- PROTOCOL_CONDITIONS: in CCO
Kindly state absorption maximum for each of the entries shown.
Return type: number; implicit unit nm.

For reference, reported absorption maximum for Cc1ccc(C#Cc2ccc3ccc4cccc5ccc2c3c45)cc1 stands at 362

Input O=C(N/N=C/c1ccccc1O)c1ccccc1 . Output absorption maximum: 400

Entry CCN(CC)c1ccc2c(-c3ccccc3C(=O)O)c3c([o+]c2c1)/C(=C/Nc1ccccc1)CCC3 — recorded absorption maximum = 595

Field absorption maximum (entry CC1=CC(C)=[N+]2C1=C(c1ccc(-c3c4ccccc4c(-c4ccccc4)c4ccccc34)cc1)c1c(C)cc(C)n1[B-]2(F)F ) reads 500

Lab note: measured absorption maximum of O=c1cc(COc2ccc(I)cc2)c2c(ccc3ccccc32)o1 was 350

# compound CN1C(=CC2=C([O-])C(=O)C2=C(C#N)C#N)C=Cc2ccccc21 ; its absorption maximum = 515

Notebook: CCCC(=O)c1c2c(c(C(=O)CCC)c3c1OC(CC(=O)OC)(C(=O)O)O3)OCO2 , absorption maximum read as 445

Value of measured absorption maximum for the entry CCN1\C(=C/C=C/C=C/C2=[N+](CC)c3ccc4ccccc4c3C2(C)C)C(C)(C)c2c1ccc1ccccc21 : 682

Reported absorption maximum ( CNc1cccc2c1C(=O)c1ccccc1-2 ) = 448

Consider CC(C)[Si]1(C(C)C)c2ccccc2-c2ccc(N(C)C)cc21 . Its measured absorption maximum is 319

// Cc1ccc(C2=C3C=C(I)C=[N+]3[B-](F)(F)n3cccc32)cc1 : absorption maximum value = 518

Query COc1ccc(-c2nc(C(C)=O)c(C)o2)cc1 yields absorption maximum of 277

So, CCN(CC)c1ccc(-c2cc3c(s2)c(C(=O)OC)cc(=O)n3C)cc1 ? Its absorption maximum was 444

For record CCOC(=O)c1sc(SC)c2c(=O)n(C)nnc12 the listed absorption maximum is 391

The reported value for O=C([O-])c1ccccc1-c1c2cc(I)c(=O)c(I)c-2oc2c(I)c([O-])c(I)cc12 in terms of absorption maximum is 532

The compound COCCOCCOCCOc1ccc(OCCOCCOCCOC)c(C=O)c1 showed absorption maximum equal to 348

# absorption maximum (compound: CCOC(=O)/C(=C1\C(=O)C(O)=C1C=C1N(C)c2ccccc2C1(C)C)[N+](=O)[O-] ) is 475

Field absorption maximum (entry CCN(CC)c1cccc2c1ccc1c(=O)oc(-c3ccc(C(F)(F)F)cc3)cc12 ) reads 392

Just so you know, measured absorption maximum for CC1(C)CC(=O)C2=C(C1)Oc1ccc3ccc(O)cc3c1C2c1ccccn1 (configuration not stated) came out at 334

Quick note, absorption maximum for O=Cc1cc(O)c(C=O)cc1O landed at 413

For reference, reported absorption maximum for Cc1ccc(C2=C3C=CC=[N+]3[B-](F)(F)n3cccc32)cc1 stands at 497.5

The value of absorption maximum measured for the compound NS(=O)(=O)c1ccc(N2N=C(c3ccc(O)cc3)CC2c2ccccc2)cc1 (configuration not stated) turned out to be 357

Value of absorption maximum reported for the compound Nc1cc2oc3cc(O)c(F)cc3c(=O)c2cc1F is 366

Lookup result for CCOc1cc2c(cc1/C=C/C(=C(C#N)C#N)c1ccccc1)c1ccccc1n2CC ; measured absorption maximum: 468

Measured absorption maximum of CN(C)c1ccc(-c2ccc(C#N)s2)s1 : 413

For this compound ( Cc1cc(=O)oc2cc3cc(O)ccc3cc12 ), measured absorption maximum is 357

The compound listed as COC(=O)C(Cc1ccc2oc(-c3ccc4c(c3)c3ccccc3n4-c3ccccc3)nc2c1)NC(=O)OC(C)(C)C (configuration not stated) has a reported absorption maximum of 334.69

Value of measured absorption maximum for the entry CC1(C)CC(=O)c2cc(F)c(F)cc2N1 : 381

Query CN(C)c1cc2c(cc1F)c(=O)c1cc(F)c(N3CCCCC3)cc1n2C yields absorption maximum of 364

Sample Cc1ccc(-c2cc3ccccc3oc2=O)cc1 ; absorption maximum observed: 328

Form: compound = Oc1cccc(/N=C/c2ccccc2Oc2ccccc2)c1 ; absorption maximum = 327

Short answer for COC(=O)C(Cc1ccc2oc(-c3ccc(N(c4ccccc4)c4ccccc4)cc3)nc2c1)NC(=O)OC(C)(C)C (configuration not stated) : absorption maximum was 366.3

Quick note, absorption maximum for COc1ccc2cc(-c3ccc(S(C)(=O)=O)cc3)oc(=O)c2c1 landed at 331

Entry CCCCCCOc1ccc(-c2cnc(-c3nnc(-c4ccc(OCCCCCC)cc4)o3)o2)cc1 — recorded absorption maximum = 322

response.value for Cc1c(C)n2c(COC(=O)c3ccc(F)cc3)c(C)c(=O)n2c1=O (field: absorption maximum) = 375

Sure, the documented absorption maximum for Cc1nc2cc3c4c(cccc4c2o1)C(=O)OC3=O is 362

So for CC/[NH+]=c1\cc2oc3cc(NCCOC(=O)C(NC(=O)OC(C)(C)C)C(C)C)c4ccccc4c3nc-2cc1C (configuration not stated) , the logged absorption maximum turned out to be 590

The compound listed as O=C(O)COc1cccc(OCC(=O)O)c1-c1c2ccc(=[N+]3CCCCC3)cc-2oc2cc(N3CCCCC3)ccc12 has a reported absorption maximum of 557

According to the records, this compound CC[N+](CC)=c1ccc2c(-c3ccccc3C(=O)O)c3oc4cc(N)ccc4c3oc-2c1 displays absorption maximum of 572

Item: COC(=O)C(NC(=O)CCNc1cccc2ccccc12)c1ccccc1 (configuration not stated) | absorption maximum: 330

Briefly, absorption maximum measured for CCC1=C(C)C2=C(C)c3c(C)c(CC)c(C)n3[B-](F)(F)[N+]2=C1C : 517.7

F[B-]1(F)n2cccc2C(c2c3ccccc3c(-c3ccccc3)c3ccccc23)=C2C=CC=[N+]21 has a reported absorption maximum of 504
